Molecular target: Bcl-2 protein (Recombinant Human Bcl-2 Protein) (Homo sapiens, UniProt P10415)
Construct: purchased Novus NBP2-34889
Sequence (P10415 whole entry): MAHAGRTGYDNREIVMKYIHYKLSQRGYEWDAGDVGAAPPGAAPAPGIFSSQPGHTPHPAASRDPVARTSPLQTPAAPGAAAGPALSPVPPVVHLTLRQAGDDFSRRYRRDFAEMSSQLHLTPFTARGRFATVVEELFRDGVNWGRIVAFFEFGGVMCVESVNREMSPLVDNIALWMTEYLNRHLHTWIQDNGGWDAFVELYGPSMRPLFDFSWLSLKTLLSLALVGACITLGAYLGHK
Experiment: Binding evaluation of mixture library compounds to Bcl-2 using AS-MS (affinity selection mass spectrometry)
Conditions: AS-MS on the mixture of 1200 library compounds; ASMS Ratio(%)=(A−C)/B×100; replicate n = 2
Readout: ASMS ratio (%) n = 2
Field: numeric (%). Do not append units.

Take a look at these entries with their results.
CCOc1cccc(-c2ccc(CN3CCN(c4ccc(C(=O)Nc5ccc(OC)cc5)cc4)CC3)c(CC)c2)c1 | 0.0
CCOc1cccc(-c2cc(C(=O)N3CCN(c4ccc(C(=O)N(CC)CC)nn4)CC3)cc(C(F)(F)F)c2)c1 | −0.5
CCOc1cccc(-c2ccccc2CCC(=O)N2CCN(c3ccc(C(=O)N(CC)CC)cc3)CC2)c1 | −0.9
CCOc1cncc(-c2cnn(-c3cc(C(=O)N4CCN(c5ccc(C(=O)Nc6ccc(OC)cc6)nn5)CC4)cc(C(F)(F)F)c3)c2)c1 | −1.2

Input line: Given the entry CCOc1cncc(C#Cc2cc(C(=O)N3CCN(c4ccc(C(=O)Nc5ccc(OC)cc5)cc4)CC3)cc(C(F)(F)F)c2)c1 , report its measured ASMS ratio (%) n = 2.
Output line: 2.1
